system: H1047R PIK3CA enzyme (Homo sapiens, UniProt P42336, H1047R)
Sequence (P42336 whole entry H1047R): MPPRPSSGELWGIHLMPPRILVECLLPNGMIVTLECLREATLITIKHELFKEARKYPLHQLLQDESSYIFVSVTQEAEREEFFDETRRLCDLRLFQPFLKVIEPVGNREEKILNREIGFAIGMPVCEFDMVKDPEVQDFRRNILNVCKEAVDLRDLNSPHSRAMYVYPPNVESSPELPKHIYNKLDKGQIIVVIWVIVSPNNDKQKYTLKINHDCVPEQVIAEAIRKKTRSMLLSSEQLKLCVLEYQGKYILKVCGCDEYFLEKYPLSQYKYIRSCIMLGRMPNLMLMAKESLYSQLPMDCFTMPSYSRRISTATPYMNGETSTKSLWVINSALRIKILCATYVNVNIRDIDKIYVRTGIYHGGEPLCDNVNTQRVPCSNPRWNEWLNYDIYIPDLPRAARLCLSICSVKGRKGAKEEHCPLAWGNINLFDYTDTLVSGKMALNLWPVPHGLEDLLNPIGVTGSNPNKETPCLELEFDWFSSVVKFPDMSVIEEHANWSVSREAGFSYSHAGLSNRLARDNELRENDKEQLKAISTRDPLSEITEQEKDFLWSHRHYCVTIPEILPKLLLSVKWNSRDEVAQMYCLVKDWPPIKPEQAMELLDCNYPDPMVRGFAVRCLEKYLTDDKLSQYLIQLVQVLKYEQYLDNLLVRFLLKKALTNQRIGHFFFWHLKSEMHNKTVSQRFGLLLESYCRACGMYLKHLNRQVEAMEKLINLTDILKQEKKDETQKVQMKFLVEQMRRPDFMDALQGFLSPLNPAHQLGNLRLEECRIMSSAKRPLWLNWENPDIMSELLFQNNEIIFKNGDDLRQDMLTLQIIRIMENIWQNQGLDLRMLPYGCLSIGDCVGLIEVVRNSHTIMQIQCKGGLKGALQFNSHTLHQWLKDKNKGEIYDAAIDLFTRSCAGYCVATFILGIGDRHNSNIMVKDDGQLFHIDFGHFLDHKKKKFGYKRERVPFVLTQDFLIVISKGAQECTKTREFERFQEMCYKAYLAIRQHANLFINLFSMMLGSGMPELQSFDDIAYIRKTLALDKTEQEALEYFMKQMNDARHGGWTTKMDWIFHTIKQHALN
Sequence (P27986 whole entry partner): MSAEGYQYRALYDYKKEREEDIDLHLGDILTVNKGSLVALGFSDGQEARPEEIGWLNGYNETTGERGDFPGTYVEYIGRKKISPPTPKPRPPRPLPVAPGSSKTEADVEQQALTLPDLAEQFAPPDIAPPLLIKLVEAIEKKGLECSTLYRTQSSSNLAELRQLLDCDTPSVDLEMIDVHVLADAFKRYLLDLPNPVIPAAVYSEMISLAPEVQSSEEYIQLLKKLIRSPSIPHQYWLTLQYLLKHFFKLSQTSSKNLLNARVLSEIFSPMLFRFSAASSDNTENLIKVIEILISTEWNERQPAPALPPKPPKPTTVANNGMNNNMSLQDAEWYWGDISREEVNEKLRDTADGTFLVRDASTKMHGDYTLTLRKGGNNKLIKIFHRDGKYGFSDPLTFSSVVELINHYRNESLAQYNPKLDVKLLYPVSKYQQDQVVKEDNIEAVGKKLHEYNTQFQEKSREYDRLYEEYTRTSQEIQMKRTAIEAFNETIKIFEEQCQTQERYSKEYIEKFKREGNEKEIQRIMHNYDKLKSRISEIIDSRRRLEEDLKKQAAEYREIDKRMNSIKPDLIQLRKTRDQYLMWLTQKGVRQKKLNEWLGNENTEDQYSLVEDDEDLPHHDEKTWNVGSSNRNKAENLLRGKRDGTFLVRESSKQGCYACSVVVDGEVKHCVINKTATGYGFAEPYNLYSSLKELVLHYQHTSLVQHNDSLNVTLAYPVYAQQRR
assay_info: ADP-Glo Biochemical PIK3CA Kinase Assay
pIC50: −log10 of the molar value.
I'd appreciate it if you could supply pIC50 values for the items below.

[ask] Return pIC50 for the following compound: CC(C)(O)c1ncc(-c2cc(NC(=O)c3cc(F)cc(C(F)(F)F)c3)c3c(c2)C(=O)NC3c2cc(F)ccc2Cl)cn1 (stereo not shown)
[reply] 6.30 to 7.00

[ask] Return pIC50 for the following compound: O=C(Nc1cc(-c2ccc3ncnn3n2)cc2c1[C@H](c1cc(F)ccc1Cl)NC2=O)c1cc(F)cc(C(F)(F)F)c1
[reply] ≥ 7.00

[ask] Return pIC50 for the following compound: N#Cc1ccc(Cl)c(C2NC(=O)c3cccc(NC(=O)c4cc(F)cc(C(F)(F)F)c4)c32)c1 (stereo not shown)
[reply] 4.00 to 5.00

[ask] Return pIC50 for the following compound: O=C1NC(c2cc(F)ccc2Cl)c2c(NC3CCCS(=O)(=O)C3)cc(-c3ccc4ncnn4c3)cc21 (stereo not shown)
[reply] 4.00 to 5.00

[ask] Return pIC50 for the following compound: O=C(Nc1cccc2c1C(C1CC1)NC2=O)c1cc(F)cc(C(F)(F)F)c1 (stereo not shown)
[reply] 4.00 to 5.00

[ask] Return pIC50 for the following compound: CS(=O)(=O)n1cc(-c2cc(NC(=O)c3cc(F)cc(C(F)(F)F)c3)c3c(c2)C(=O)N[C@H]3c2cc(F)ccc2Cl)cn1
[reply] ≥ 7.00

[ask] Return pIC50 for the following compound: Cc1ccccc1C1NC(=O)c2cc(-c3cnoc3)cc(NC(=O)c3csc4ccccc34)c21 (stereo not shown)
[reply] ≥ 7.00

###

system: H1047R PIK3CA enzyme (Homo sapiens, UniProt P42336, H1047R)
assay_info: ADP-Glo Biochemical PIK3CA Kinase Assay
pIC50: −log10 of the molar value.
property_name: pIC50

[ask] Return pIC50 for the following compound: O=C1N[C@H](c2cc(F)ccc2Cl)c2c(NC(=O)C3(c4cc(F)cc(C(F)(F)F)c4)CCCC3)cc(Br)cc21 [Compound I-2070]
[reply] 4.00 to 5.00

[ask] Return pIC50 for the following compound: O=C1N[C@@H](c2cc(F)ccc2Cl)c2c(NC(=O)N3C[C@@H](C(F)F)c4ccccc43)cccc21 (single isomer, unassigned) [Compound I-2334]
[reply] ≥ 7.00

[ask] Return pIC50 for the following compound: N#Cc1cc(F)cc(C(=O)Nc2ccnc3c2C(c2ccccc2Cl)NC3=O)c1 (stereo not shown) [Compound I-235]
[reply] 4.00 to 5.00

[ask] Return pIC50 for the following compound: Cc1ccccc1C1NC(=O)c2c(C(=O)N3CC(S(C)(=O)=O)C3)ccc(NC(=O)c3nsc4ccccc34)c21 (stereo not shown) [Compound I-225]
[reply] 6.30 to 7.00

[ask] Return pIC50 for the following compound: CS(=O)(=O)CCc1cc(NC(=O)c2cc(F)cc(C(F)(F)F)c2)c2c(c1)C(=O)NC2c1cc(F)ccc1Cl (stereo not shown) [Compound I-1476]
[reply] ≥ 7.00

[ask] Return pIC50 for the following compound: O=C(Nc1cc(-c2ncco2)cc2c1C(c1cc(F)ccc1Cl)NC2=O)c1cc(F)cc(C(F)(F)F)c1 (stereo not shown) [Compound I-915]
[reply] ≥ 7.00

[ask] Return pIC50 for the following compound: O=C(Nc1cc(-c2ccc3nccn3c2)cc2c1[C@@H](c1cc(F)ccc1Cl)NC2=O)c1cc(F)cc(C(F)(F)F)c1 [Compound I-826]
[reply] 6.00 to 6.30

###

system: H1047R PIK3CA enzyme (Homo sapiens, UniProt P42336, H1047R)
assay_info: ADP-Glo Biochemical PIK3CA Kinase Assay
pIC50: −log10 of the molar value.
property_name: pIC50

[ask] Return pIC50 for the following compound: O=C1N[C@H](c2cc(F)ccc2Cl)c2c(NC(=O)[C@@H]3CCC[C@H](OC(F)(F)F)C3)cccc21 (single isomer, unassigned) [Compound I-2213]
[reply] 4.00 to 5.00

[ask] Return pIC50 for the following compound: Nc1cnc(-c2cc(NC(=O)c3cc(F)cc(C(F)(F)F)c3)c3c(c2)C(=O)NC3c2cc(F)ccc2Cl)cn1 (stereo not shown) [Compound I-1102]
[reply] ≥ 7.00

[ask] Return pIC50 for the following compound: O=C(O)Cc1cc(NC(=O)c2cc(F)cc(C(F)(F)F)c2)c2c(c1)C(=O)NC2c1cc(F)ccc1Cl (stereo not shown) [Compound I-399]
[reply] ≥ 7.00

[ask] Return pIC50 for the following compound: O=C1NC(c2cc(F)ccc2Cl)c2c(NC(=O)N3CCC3c3ccccc3)cccc21 (stereo not shown) [Compound I-2321]
[reply] 4.00 to 5.00

###

I'd appreciate it if you could supply IC50 values for the items below.
system: H1047R PIK3CA enzyme (Homo sapiens, UniProt P42336, H1047R)
assay_info: ADP-Glo Biochemical PIK3CA Kinase Assay

[ask] Return IC50 for the following compound: O=C(Nc1cc(-c2ccc3ncnn3c2)cc2c1[C@@H](c1cc(F)ccc1Cl)NC2=O)c1ccc(F)c(OC(F)(F)F)c1 (stereo in doubt)
[reply] 1 to 10 µM

[ask] Return IC50 for the following compound: O=C(Nc1cc(NC2=NC[C@H](C(F)(F)F)O2)cc2c1[C@H](c1cc(F)ccc1Cl)NC2=O)c1cc(F)cc(C(F)(F)F)c1 (single isomer, unassigned)
[reply] 0.1 to 0.5 µM

[ask] Return IC50 for the following compound: O=C1NC(c2cc(F)ccc2Cl)c2c(NC(=O)N3CCCCc4ccccc43)cccc21 (stereo not drawn)
[reply] 10 to 100 µM

[ask] Return IC50 for the following compound: CCC(N)(CC)c1cc(NC(=O)c2cc(F)cc(C(F)(F)F)c2)c2c(c1)C(=O)NC2c1cc(F)ccc1Cl (stereo not drawn)
[reply] ≤ 0.1 µM

[ask] Return IC50 for the following compound: O=C(COc1ccccc1)Nc1cc(-c2ccc3ncnn3c2)cc2c1C(c1cc(F)ccc1Cl)NC2=O (stereo not drawn)
[reply] 10 to 100 µM

[ask] Return IC50 for the following compound: CCn1cc(-c2cc(NC(=O)c3cc(F)cc(C(F)(F)F)c3)c3c(n2)C(=O)N[C@@H]3c2cc(F)ccc2Cl)ccc1=O
[reply] 1 to 10 µM

###

I'd appreciate it if you could supply IC50 values for the items below.
system: H1047R PIK3CA enzyme (Homo sapiens, UniProt P42336, H1047R)
assay_info: ADP-Glo Biochemical PIK3CA Kinase Assay

[ask] Return IC50 for the following molecule: O=C(Nc1cc(-c2ccc3ncnn3c2)c(Cl)c2c1C(c1cc(F)ccc1Cl)NC2=O)c1cc(F)cc(C(F)(F)F)c1 (centres unmarked)
[reply] ≤ 100 nM

[ask] Return IC50 for the following molecule: Nc1ncncc1-c1cc(NC(=O)c2cc(F)cc(C(F)(F)F)c2)c2c(c1)C(=O)NC2c1cc(F)ccc1Cl (centres unmarked)
[reply] ≤ 100 nM

[ask] Return IC50 for the following molecule: O=C(Nc1cc(Br)cc2c1C(c1cc(F)ccc1Cl)NC2=O)c1cc(F)cc(C(F)(F)F)c1 (centres unmarked)
[reply] ≤ 100 nM

[ask] Return IC50 for the following molecule: O=C(Nc1cc(-c2ccn3nc(C4CC4)nc3c2)cc2c1C(c1cc(F)ccc1Cl)NC2=O)c1cc(F)cc(C(F)(F)F)c1 (centres unmarked)
[reply] ≤ 100 nM

[ask] Return IC50 for the following molecule: Cc1ccccc1C1NC(=O)c2cccc(NC(=O)c3csc4ccccc34)c21 (centres unmarked)
[reply] 100 to 500 nM

[ask] Return IC50 for the following molecule: O=C1N[C@H](c2cc(F)ccc2Cl)c2c(NC(=O)N3C[C@@H](O)c4cc(F)ccc43)cc(-n3ccccc3=O)cc21 (single isomer, unassigned)
[reply] 1000 to 10000 nM

[ask] Return IC50 for the following molecule: C[C@H](C#N)n1cc(-c2cc(NC(=O)c3cc(F)cc(C(F)(F)F)c3)c3c(c2)C(=O)N[C@@H]3c2cc(F)ccc2Cl)cn1 (single isomer, unassigned)
[reply] 1000 to 10000 nM

[ask] Return IC50 for the following molecule: C[C@@]1(C(=O)Nc2cc(Br)cc3c2[C@@H](c2cc(F)ccc2Cl)NC3=O)CCC[C@H](C(F)(F)F)C1 (single isomer, unassigned) [Compound I-2264]
[reply] 100 to 500 nM

[ask] Return IC50 for the following molecule: Cc1ccccc1C1NC(=O)c2cc(C(=O)NCC(F)F)cc(NC(=O)c3nsc4ccccc34)c21 (centres unmarked)
[reply] ≤ 100 nM

[ask] Return IC50 for the following molecule: O=C(Nc1cc(-c2ccc3nc(C(F)F)cn3c2)cc2c1[C@H](c1cc(F)ccc1Cl)NC2=O)c1cc(F)cc(C(F)(F)F)c1
[reply] ≤ 100 nM

[ask] Return IC50 for the following molecule: O=C(Nc1cc(-c2ccc3nc(C(F)F)nn3c2)cc2c1C(c1cc(F)ccc1Cl)NC2=O)c1cc(F)cc(C(F)(F)F)c1 (centres unmarked)
[reply] ≤ 100 nM

[ask] Return IC50 for the following molecule: O=C1N[C@@H](c2cc(F)ccc2Cl)c2c(NC(=O)N3C[C@@](O)(C(F)(F)F)c4cc(F)ccc43)cc(-n3ccnn3)cc21 (single isomer, unassigned)
[reply] 100 to 500 nM

[ask] Return IC50 for the following molecule: O=C(Nc1cccc2c1C(c1cc(F)ccc1Cl)NC2=O)c1cc(F)cc(B(O)O)c1 (centres unmarked)
[reply] 10000 to 100000 nM

[ask] Return IC50 for the following molecule: CC([C@@H]1C[C@@H](O)CN1C(=O)Nc1cccc2c1C(c1cc(F)ccc1Cl)NC2=O)C(F)(F)F (single isomer, unassigned)
[reply] 500 to 1000 nM

[ask] Return IC50 for the following molecule: O=C(Nc1cc(Br)cc2c1C(c1cc(F)ccc1Cl)NC2=O)c1cc(F)cc(OC(F)(F)F)c1 (centres unmarked)
[reply] 100 to 500 nM

[ask] Return IC50 for the following molecule: Cc1ccccc1C1NC(=O)c2cccc(NC(=O)c3csc4cnccc34)c21 (centres unmarked)
[reply] 100 to 500 nM

[ask] Return IC50 for the following molecule: O=C(Nc1cc(-c2cncnc2)cc2c1C(c1cc(F)ccc1Cl)NC2=O)c1cc(F)cc(C(F)(F)F)c1 (centres unmarked)
[reply] ≤ 100 nM

[ask] Return IC50 for the following molecule: Cc1ccccc1C1NC(=O)c2nccc(NC(=O)N3CCc4ncccc43)c21 (centres unmarked)
[reply] 10000 to 100000 nM

[ask] Return IC50 for the following molecule: O=C1NC(c2ccccc2C(F)F)c2c(NC(=O)c3nsc4ccccc34)cccc21 (centres unmarked)
[reply] ≤ 100 nM

[ask] Return IC50 for the following molecule: Cc1nn(C)c(C)c1-c1cc(NC(=O)c2cc(F)cc(Cl)c2)c2c(n1)C(=O)NC2c1cc(F)ccc1Cl (centres unmarked)
[reply] 500 to 1000 nM

[ask] Return IC50 for the following molecule: O=C1NC(c2cc(F)ccc2Cl)c2c(NC(=O)c3cc(Cl)cc4cccnc34)cc(Br)cc21 (centres unmarked)
[reply] 10000 to 100000 nM

[ask] Return IC50 for the following molecule: O=C1NC[C@H](c2cc(NC(=O)c3cc(F)cc(C(F)(F)F)c3)c3c(c2)C(=O)N[C@H]3c2cc(F)ccc2Cl)O1 (single isomer, unassigned)
[reply] ≤ 100 nM

[ask] Return IC50 for the following molecule: CC(N1C[C@H](O)C[C@H]1C(=O)Nc1cccc2c1C(c1cc(F)ccc1Cl)NC2=O)C(F)(F)F (mixture of isomers)
[reply] 10000 to 100000 nM

[ask] Return IC50 for the following molecule: O=C1NC(c2cc(F)ccc2Cl)c2c(NC(=O)c3ncsc3Br)cccc21 (centres unmarked)
[reply] 1000 to 10000 nM

[ask] Return IC50 for the following molecule: O=C(Nc1cc(C2CCOCC2)cc2c1C(c1cc(F)ccc1Cl)NC2=O)c1cc(F)cc(C(F)(F)F)c1 (centres unmarked)
[reply] ≤ 100 nM

[ask] Return IC50 for the following molecule: O=C(Nc1cc(Cl)nc2c1[C@@H](c1cc(F)ccc1Cl)NC2=O)c1cc(F)cc(C(F)(F)F)c1
[reply] ≤ 100 nM
